Target: ERα (Homo sapiens)
Sequence (P03372 whole entry): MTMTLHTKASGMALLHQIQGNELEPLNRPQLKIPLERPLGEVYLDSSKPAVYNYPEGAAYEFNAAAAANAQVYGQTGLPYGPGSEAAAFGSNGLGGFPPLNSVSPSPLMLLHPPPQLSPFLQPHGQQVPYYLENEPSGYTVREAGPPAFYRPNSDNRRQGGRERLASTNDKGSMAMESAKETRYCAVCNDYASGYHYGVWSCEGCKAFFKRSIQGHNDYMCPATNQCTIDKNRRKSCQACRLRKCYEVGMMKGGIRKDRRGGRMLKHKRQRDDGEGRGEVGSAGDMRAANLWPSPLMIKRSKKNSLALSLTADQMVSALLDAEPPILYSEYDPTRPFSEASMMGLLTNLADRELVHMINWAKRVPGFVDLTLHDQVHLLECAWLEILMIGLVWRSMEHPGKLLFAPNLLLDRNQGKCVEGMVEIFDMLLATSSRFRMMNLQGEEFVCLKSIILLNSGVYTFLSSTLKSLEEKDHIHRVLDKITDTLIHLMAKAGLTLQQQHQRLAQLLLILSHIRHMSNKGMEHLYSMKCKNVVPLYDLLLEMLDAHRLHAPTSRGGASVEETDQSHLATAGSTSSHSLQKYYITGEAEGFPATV
Assay: ERα degradation in T-47D cells (Western blot)
Assay type: cell-based
Settings: 10nM, 4 hours
Degradation rate of ERα in T-47D cells (%) values for the compounds below.
Measurement label: Degradation rate of ERα in T-47D cells (%)

Compound | Assay value
Cn1c(=O)n(C2CCC(=O)NC2=O)c2ccc3c(c21)OCC31CCN(C2CC3(CCN(c4ccc([C@@H]5c6ccc(O)cc6CC[C@@H]5c5ccccc5)cc4)CC3)C2)CC1 (stereo partly shown) [ER-P-17] | 30
O=C1CC[C@H](NC(=O)c2ccc3c(c2)OCC[C@H]2CN(CC4CCC(OC5CCN(c6ccc([C@@H]7c8ccc(O)cc8CC[C@@H]7c7ccccc7)cc6)CC5)CC4)CCN32)C(=O)N1 (stereo partly shown) [ER-P-45] | -3
O=C1CC[C@H](N2Cc3cc(N4CCN(CC5CCN(c6ccc([C@@H]7c8ccc(O)cc8CC[C@@H]7c7ccccc7)cc6)CC5)CC4)ccc3C2=O)C(=O)N1 [ARV-471, reference compound] | 85
COc1c(C(=O)N[C@H]2CCC(=O)NC2=O)ccc2c1OC[C@H]1CN(CC3CCC(OC4CCN(c5ccc([C@@H]6c7ccc(O)cc7CC[C@@H]6c6ccccc6)cc5)CC4)CC3)CCN21 (stereo partly shown) | 0
CN(c1ccc2c(c1)OCC21CCN(C[C@H]2CC[C@@H](OC3CCN(c4ccc([C@@H]5c6ccc(O)cc6CC[C@@H]5c5ccccc5)cc4)CC3)CC2)CC1)C1CCC(=O)NC1=O (stereo partly shown) | 15
CN(C(=O)CN1CCC2(CC1)CCC1(CC2)COc2c1ccc1c2CN(C2CCC(=O)NC2=O)C1=O)C1CCC2(CC1)CN(c1ccc([C@@H]3c4ccc(O)cc4CC[C@@H]3c3ccccc3)cc1)C2 (stereo partly shown) | 66
O=C1CCC(N2Cc3c(ccc4c3OCC43CCC4(CC3)CN(CC3CCN(c5ccc([C@@H]6c7ccc(O)cc7CC[C@@H]6c6ccccc6)cc5)CC3)C4)C2=O)C(=O)N1 (stereo partly shown) | 67
O=C1CCC(N2Cc3c(ccc4c3OCC43CCC4(CCN(C5CC6(CCN(c7ccc([C@@H]8c9ccc(O)cc9CC[C@@H]8c8ccccc8)cc7)CC6)C5)CC4)CC3)C2=O)C(=O)N1 (stereo partly shown) | 73
O=C1CC[C@H](NC(=O)c2ccc3c(c2F)OCC32CCN(CC3CCN(c4ccc([C@@H]5c6ccc(O)cc6CC[C@@H]5c5ccccc5)cc4)CC3)CC2)C(=O)N1 | -28
Cn1c(=O)n(C2CCC(=O)NC2=O)c2ccc3c(c21)OCC31CCN(C2CCC3(CC2)CCN(c2ccc([C@@H]4c5ccc(O)cc5CC[C@@H]4c4ccccc4)cc2)CC3)CC1 (stereo partly shown) | 73

----------
Target: UniProt:P03372
Experiment: ERα degradation in MCF-7 cells (Western blot)
Format: cell-based
Design: host or cells: MCF-7
Settings: 1nM, 4 hours
Answer class 0 if Degradation rate of ERα in MCF-7 cells (%) is under 10%, and class 1 if it is 10% or more.

Molecule | Answer label
Cn1c(=O)n(C2CCC(=O)NC2=O)c2cc3c(cc21)C1(CCN(C(=O)C2CN(CC4CCN(c5ccc([C@@H]6c7ccc(O)cc7CC[C@@H]6c6ccccc6)cc5)CC4)C2)CC1)CO3 (stereo partly drawn) | class 1
O=C1CCC(Nc2ccc3c(c2)COC[C@H]2CN(CC4CCC(OC5CCN(c6ccc([C@@H]7c8ccc(O)cc8CC[C@@H]7c7ccccc7)cc6)CC5)CC4)CCN32)C(=O)N1 (single isomer, unassigned) [ER-P-51] | class 0
C[C@@H]1Cc2cc(O)ccc2C(c2c(F)cc(N3CCC4(CC3)CC(N3CCC5(CC3)CCC3(CC5)COc5c3ccc3c5CN(C5CCC(=O)NC5=O)C3=O)C4)cc2F)N1CC(F)F (stereo partly drawn) | class 1
Cn1c(=O)n(C2CCC(=O)NC2=O)c2ccc3c(c21)OCC31CCN(C(=O)C2CN(CC3CCN(c4ccc([C@@H]5c6ccc(O)cc6CC[C@@H]5c5ccccc5)cc4)CC3)C2)CC1 (stereo partly drawn) | class 1
Cn1c(=O)n(C2CCC(=O)NC2=O)c2ccc3c(c21)OCC31CCN(CC2CCN(C(=O)C3CCN(c4ccc([C@@H]5c6ccc(O)cc6CC[C@@H]5c5ccccc5)cc4)CC3)CC2)CC1 (stereo partly drawn) | class 1
O=C1CCC(N2Cc3c(ccc4c3OCC43CCC4(CCN(C5CCC6(CC5)CN(c5ccc([C@@H]7c8ccc(O)cc8CC[C@@H]7c7ccccc7)cc5)C6)CC4)CC3)C2=O)C(=O)N1 (stereo partly drawn) | class 0
CN(c1ccc2c(c1)COC[C@H]1CN(CC3CCC(OC4CCN(c5ccc([C@@H]6c7ccc(O)cc7CC[C@@H]6c6ccccc6)cc5)CC4)CC3)CCN21)C1CCC(=O)NC1=O (stereo partly drawn) [ER-P-52] | class 0
Cn1c(=O)n(C2CCC(=O)NC2=O)c2cc3c(cc21)C1(CCN(C2CCC4(CC2)CCN(c2ccc([C@@H]5c6ccc(O)cc6CC[C@@H]5c5ccccc5)cc2)CC4)CC1)CO3 (stereo partly drawn) | class 1
Cn1c(=O)n(C2CCC(=O)NC2=O)c2ccc3c(c21)C1(CCN(C2CCC4(CC2)CN(c2ccc([C@@H]5c6ccc(O)cc6CC[C@@H]5c5ccccc5)cc2)C4)CC1)CO3 (stereo partly drawn) | class 0
O=C1CCC(N2Cc3c(ccc4c3OCC43CCC4(CCN(C5CCC6(CC5)CCN(c5ccc([C@@H]7c8ccc(O)cc8CC[C@@H]7c7ccccc7)cc5)CC6)CC4)CC3)C2=O)C(=O)N1 (stereo partly drawn) | class 0
C[C@@H]1Cc2cc(O)ccc2C(c2c(F)cc(N3CCC(C(=O)N4CCC(N5CCC6(CC5)COc5c6ccc6c5n(C)c(=O)n6C5CCC(=O)NC5=O)CC4)CC3)cc2F)N1CC(F)F (stereo partly drawn) | class 1

----------
Target: SMARCA4 (Homo sapiens)
Assay: SMARCA4 degradation in SW1573 cells (Western blot)
Format: cell-based
Design: endogenous in cells; host or cells: SW1573
Details: 1 nM, 24 hours, read-out: Degradation rate of SMARCA4 in SW1573 cells (%)
This section presents molecules with their documented Dmax at 0.001 µM values.

Molecule | Target | Dmax at 0.001 µM
CN(C(=O)c1ccc2c(c1)OC[C@H]1CN(C3CC4(CCC(C#Cc5cc(-c6ccccc6O)nnc5N)CC4)C3)CCN21)[C@H]1CCC(=O)NC1=O (stereo partly drawn) [SM-P-18] | SMARCA4 (Homo sapiens) | -32%
Cn1c(=O)n(C2CCC(=O)NC2=O)c2cc3c(cc21)OC1(CC3)CCN(C2CC3(CCC(C#Cc4cc(-c5ccccc5O)nnc4N)CC3)C2)CC1 (stereo not drawn) [SM-P-1] | SMARCA4 (Homo sapiens) | 43%
Nc1nnc(-c2ccccc2O)cc1C#CC1CCC2(CC1)CC(N1CCN3c4ccc(C(=O)N[C@H]5CCC(=O)NC5=O)c(F)c4OC[C@H]3C1)C2 (stereo partly drawn) [SM-P-22] | SMARCA4 (Homo sapiens) | 14%

----------
Readings of Degradation rate of AR protein in VCaP cells for the listed molecules
Target: AR protein (Homo sapiens, UniProt P10275)
Construct: host or cells: VCaP
Sequence (P10275 whole entry): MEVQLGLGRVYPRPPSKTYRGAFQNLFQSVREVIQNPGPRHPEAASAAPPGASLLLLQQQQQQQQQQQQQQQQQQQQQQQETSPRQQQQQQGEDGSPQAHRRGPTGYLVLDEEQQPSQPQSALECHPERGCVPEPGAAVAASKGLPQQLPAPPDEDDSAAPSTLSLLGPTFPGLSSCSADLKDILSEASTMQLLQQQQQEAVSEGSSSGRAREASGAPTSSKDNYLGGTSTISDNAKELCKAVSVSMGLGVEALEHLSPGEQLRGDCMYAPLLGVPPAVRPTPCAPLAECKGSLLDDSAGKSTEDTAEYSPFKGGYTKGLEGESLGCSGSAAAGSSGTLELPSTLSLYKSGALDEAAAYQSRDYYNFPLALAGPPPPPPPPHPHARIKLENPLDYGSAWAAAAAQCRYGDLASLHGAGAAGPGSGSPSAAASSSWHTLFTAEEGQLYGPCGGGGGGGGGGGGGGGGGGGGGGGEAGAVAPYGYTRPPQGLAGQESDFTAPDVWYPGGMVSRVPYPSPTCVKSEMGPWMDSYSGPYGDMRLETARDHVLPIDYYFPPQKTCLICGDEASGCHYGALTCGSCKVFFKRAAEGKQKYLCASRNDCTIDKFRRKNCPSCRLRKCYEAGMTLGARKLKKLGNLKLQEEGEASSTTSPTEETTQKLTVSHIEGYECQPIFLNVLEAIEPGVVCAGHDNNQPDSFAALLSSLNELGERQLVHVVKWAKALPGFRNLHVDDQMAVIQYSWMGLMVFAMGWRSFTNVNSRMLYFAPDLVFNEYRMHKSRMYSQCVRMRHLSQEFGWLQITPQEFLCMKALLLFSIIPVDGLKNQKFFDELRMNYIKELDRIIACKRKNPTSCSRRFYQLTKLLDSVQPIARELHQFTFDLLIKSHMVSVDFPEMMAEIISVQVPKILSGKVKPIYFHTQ
Assay: AR protein degradation in VCaP cells (Western blot)
Format: cell-based
Details: 0.5 nM, 8h
Measurement label: Degradation rate of AR protein in VCaP cells (%)

Molecule | Assay value
COc1cc(O[C@H]2CC[C@H](NC(=O)c3ccc(N4CCC(CN5CCC6(CC5)COc5cc7c(cc56)n(C)c(=O)n7C5CCC(=O)NC5=O)CC4)nn3)CC2)ccc1C#N (relative stereo) [A-P-17] | 81
COc1cc(O[C@H]2C(C)(C)[C@H](NC(=O)c3ccc(N4CCC(CN5CCC6(CCc7cc(C(=O)N[C@H]8CCC(=O)NC8=O)c(F)cc7O6)CC5)(OC)CC4)cc3)C2(C)C)ccc1C#N [A-P-36] | 9
COc1cc(O[C@H]2C(C)(C)[C@H](NC(=O)c3ccc(N4CCC5(CC4)CC(N4CCC6(CC4)COc4cc7c(cc46)n(C)c(=O)n7C4CCC(=O)NC4=O)C5)cc3)C2(C)C)ccc1C#N (relative stereo) [A-P-21] | 57
COc1cc(O[C@H]2C(C)(C)[C@H](NC(=O)c3ccc(N4CCC(C)(CN5CCC6(CCc7cc(C(=O)N[C@H]8CCC(=O)NC8=O)c(F)cc7O6)CC5)CC4)nn3)C2(C)C)ccc1C#N [A-P-48] | -23
COc1cc(O[C@H]2C(C)(C)[C@H](NC(=O)c3ccc(N4CCC(F)(CN5CCC6(CCc7cc(C(=O)N[C@H]8CCC(=O)NC8=O)c(F)cc7O6)CC5)CC4)cc3)C2(C)C)ccc1C#N [A-P-52] | -1

----------
Listing of entries alongside the reported Degradation rate of SMARCA4 in SW1573 cells (%).
Molecular target: SMARCA4 (Homo sapiens, UniProt P51532)
Sequence (P51532 whole entry): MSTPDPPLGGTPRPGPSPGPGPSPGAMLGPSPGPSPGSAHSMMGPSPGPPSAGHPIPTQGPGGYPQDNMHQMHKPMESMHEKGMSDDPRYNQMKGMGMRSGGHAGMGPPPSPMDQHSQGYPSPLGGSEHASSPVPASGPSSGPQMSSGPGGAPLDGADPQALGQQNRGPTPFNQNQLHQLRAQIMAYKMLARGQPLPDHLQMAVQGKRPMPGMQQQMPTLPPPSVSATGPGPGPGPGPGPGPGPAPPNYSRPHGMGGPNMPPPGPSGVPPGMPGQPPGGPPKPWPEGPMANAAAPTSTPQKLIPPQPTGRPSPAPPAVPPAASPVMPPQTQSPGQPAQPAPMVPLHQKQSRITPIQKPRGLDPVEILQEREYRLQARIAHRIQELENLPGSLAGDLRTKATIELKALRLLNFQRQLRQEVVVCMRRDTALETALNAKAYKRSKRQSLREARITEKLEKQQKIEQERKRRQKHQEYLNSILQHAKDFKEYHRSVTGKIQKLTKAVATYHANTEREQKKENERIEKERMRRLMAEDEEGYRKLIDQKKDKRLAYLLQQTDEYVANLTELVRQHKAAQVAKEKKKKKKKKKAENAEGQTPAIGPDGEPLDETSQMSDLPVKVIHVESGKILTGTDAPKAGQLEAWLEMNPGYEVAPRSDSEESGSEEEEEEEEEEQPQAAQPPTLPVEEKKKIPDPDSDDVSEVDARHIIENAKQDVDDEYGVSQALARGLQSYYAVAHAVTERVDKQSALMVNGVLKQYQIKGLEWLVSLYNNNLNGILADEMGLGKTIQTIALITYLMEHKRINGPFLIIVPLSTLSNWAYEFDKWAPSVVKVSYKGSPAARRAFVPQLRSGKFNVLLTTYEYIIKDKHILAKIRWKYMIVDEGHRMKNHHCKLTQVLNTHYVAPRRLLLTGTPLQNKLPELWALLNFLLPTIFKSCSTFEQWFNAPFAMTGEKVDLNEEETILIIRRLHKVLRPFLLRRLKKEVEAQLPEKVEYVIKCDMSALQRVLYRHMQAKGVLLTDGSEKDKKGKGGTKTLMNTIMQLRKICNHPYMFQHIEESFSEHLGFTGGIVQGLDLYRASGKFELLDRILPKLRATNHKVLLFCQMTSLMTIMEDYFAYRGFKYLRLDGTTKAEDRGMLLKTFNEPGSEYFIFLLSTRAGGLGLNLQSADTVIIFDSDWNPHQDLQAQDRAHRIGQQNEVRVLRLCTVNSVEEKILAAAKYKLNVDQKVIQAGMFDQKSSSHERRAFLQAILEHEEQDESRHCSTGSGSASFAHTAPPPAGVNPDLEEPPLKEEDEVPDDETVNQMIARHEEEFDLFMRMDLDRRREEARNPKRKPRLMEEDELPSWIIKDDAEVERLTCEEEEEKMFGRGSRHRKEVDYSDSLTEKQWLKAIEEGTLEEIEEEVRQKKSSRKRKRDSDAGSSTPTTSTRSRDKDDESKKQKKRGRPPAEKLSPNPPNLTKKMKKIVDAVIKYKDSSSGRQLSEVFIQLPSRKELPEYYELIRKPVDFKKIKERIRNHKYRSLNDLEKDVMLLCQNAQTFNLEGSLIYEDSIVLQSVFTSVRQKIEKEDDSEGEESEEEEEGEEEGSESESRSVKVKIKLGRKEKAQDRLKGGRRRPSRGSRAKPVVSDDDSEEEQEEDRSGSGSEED
Test: SMARCA4 degradation in SW1573 cells (Western blot)
Assay type: cell-based
Design: endogenous in cells; host or cells: SW1573
Settings: 80 nM, 24 hours
Measurement label: Degradation rate of SMARCA4 in SW1573 cells (%)

Molecule | Target | Assay value
Nc1nnc(-c2ccccc2O)cc1C#CC1CCC2(CC1)CC(N1CCC3(CC1)COc1c3ccc(F)c1C(=O)N[C@H]1CCC(=O)NC1=O)C2 (some centres unmarked) | SMARCA4 (Homo sapiens, UniProt P51532) | 0%
Nc1nnc(-c2ccccc2O)cc1C#CC1CCC2(CC1)CC(N1CCN3c4cc(F)c(C(=O)N[C@H]5CCC(=O)NC5=O)cc4OC[C@H]3C1)C2 (some centres unmarked) | SMARCA4 (Homo sapiens, UniProt P51532) | -41%
Cc1ncsc1-c1ccc([C@H](C)NC(=O)[C@@H]2C[C@@H](O)CN2C(=O)[C@@H](NC(=O)[C@H]2CC[C@H](CN3CC4(CCC(n5cc(-c6cc(-c7ccccc7O)nnc6N)cn5)CC4)C3)CC2)C(C)(C)C)cc1 [SMD-3040, reference compound] | SMARCA4 (Homo sapiens, UniProt P51532) | 86%
Nc1nnc(-c2ccccc2O)cc1C#CC1CCC2(CC1)CC(N1CCN3c4ccc(C(=O)N[C@H]5CCC(=O)NC5=O)cc4OCC[C@H]3C1)C2 (some centres unmarked) | SMARCA4 (Homo sapiens, UniProt P51532) | 32%
Nc1nnc(-c2ccccc2O)cc1C#CC1CCC2(CC1)CC(N1CCN3c4ccc(C(=O)N[C@H]5CCC(=O)NC5=O)cc4OC[C@@H]3C1)C2 (some centres unmarked) | SMARCA4 (Homo sapiens, UniProt P51532) | 22%

Data credit: patent EP4722219A1
